assay: protein stability index of a GFP-peptide fusion (yeast GPS) (PSI 1-4); higher = more stable; sorted into four equal gates, so the index is relative within each strain; conditions: doa10∆
readout: protein stability index
Kindly provide the number alone.

For orientation, consider the following solved cases.
seq_text: RTQFGGGKSVGFGLVYN [RPS24A]
protein stability index: 2.96
//
seq_text: EYAALASLADVMSIESL [FAS1]
protein stability index: 3.07
//
seq_text: GNAKESKALLREISNFS [SRP72]
protein stability index: 2.97
//
seq_text: KDLQWLEFARITPMNDD [SIN4]
protein stability index: 2.94
//
seq_text: NAGTNDNSFNELTDNMS [MCD1]
protein stability index: 3.01
//
seq_text: ILSGFHNAGPVAGAGAA [RPP1B]
protein stability index: 3.01
//
seq_text: DCMIAHGAASFLKERLM [RPB2]
protein stability index: 3.03
//
seq_text: DPAHSLNYTVINFKSRE [AAR2]
protein stability index: 3.07
//
seq_text: TGISQKSMSILNSFVND [HTB1]
protein stability index: 2.96
//
seq_text: TNPKLKSEFDDLSLNIH [YMR129W/POM152]
protein stability index: 2.96

Prompt: Return reported protein stability index; argument: DKEKEENNDDALDLDLD [MED4]
Response: 2.92

---

assay: protein stability index of a GFP-peptide fusion (yeast GPS) (PSI 1-4); higher = more stable; sorted into four equal gates, so the index is relative within each strain; details: ubr1∆
Quick list: protein stability index per entry.
Kindly provide the number alone.

For orientation, consider the following solved cases.
seq_text: VTNDDKSDDDDHTVDEI [SRB8]
protein stability index: 3.01
--
seq_text: ESLYEPNLEPEDLFETI [PUP3]
protein stability index: 3.01
--
seq_text: ENQPFHGIKDIPIGHVH [AAR2]
protein stability index: 2.67
--
seq_text: FEFQYLTIGVKFFMKHG [SRB5]
protein stability index: 1.18

Switching to the query record.
Prompt: Return reported protein stability index; argument: LFLIIQCYKIYDLVILK [YMR129W/POM152]
Response: 1.16

---

experiment: protein stability index of a GFP-peptide fusion (yeast GPS) (PSI 1-4); higher = more stable; sorted into four equal gates, so the index is relative within each strain; conditions: pdr5∆
Quick list: protein stability index per entry.
Kindly provide the number alone.

For orientation, consider the following solved cases.
seq_text: HHYNPKTKKLNLSAFKI [BRR2]
readout: protein stability index
result_value: 2.4

seq_text: FEFNIRHSGKVYPITLS [UBP6]
readout: protein stability index
result_value: 2.51

seq_text: EGNAGGDQKTSENRNNI [YOR098C/NUP1]
readout: protein stability index
result_value: 3.6

Prompt: Return reported protein stability index; argument: TVTIASSLNLEDTPAND [RPB8]
Response: 2.81

Prompt: Return reported protein stability index; argument: FEVEMILMQQQMMARMA [SRP54]
Response: 1.19

Prompt: Return reported protein stability index; argument: FMLILALFVFYSPNTLG [COB]
Response: 2.15

Prompt: Return reported protein stability index; argument: NRLEKEQSVKTQNSRHY [LIN1]
Response: 2.85

Prompt: Return reported protein stability index; argument: IHKIQNDNNLKKLESQE [RPN5]
Response: 3

Prompt: Return reported protein stability index; argument: PRVQGFYVPQARNVTFD [GRR1]
Response: 2.68

Prompt: Return reported protein stability index; argument: TAPSSQRRVLLSAPLSK [RPL26A]
Response: 2.31

Prompt: Return reported protein stability index; argument: HLDSFNYFVDTDLKKII [RET1]
Response: 2.85

Prompt: Return reported protein stability index; argument: VQGKNLLTNFHGMDFTT [RPS1A]
Response: 3.42

Prompt: Return reported protein stability index; argument: ERFQVMVLRKQKRYTVK [RPL14A]
Response: 2.19

Prompt: Return reported protein stability index; argument: LFGMCESLYEPNLEPED [PUP3]
Response: 3.53

Prompt: Return reported protein stability index; argument: NLQTFTHEQWSNIQRNV [SRP72]
Response: 3

Prompt: Return reported protein stability index; argument: LVKTKELIKNYITARIM [FAS1]
Response: 2.91

Prompt: Return reported protein stability index; argument: DLSANQRETMKERKLRE [SMC1]
Response: 3.06

Prompt: Return reported protein stability index; argument: ENLNRNWRGREHWKVRN [BRN1]
Response: 3.33
